# Tested Target: MMP2 (Homo sapiens)
# Sequence (P08253 110-660): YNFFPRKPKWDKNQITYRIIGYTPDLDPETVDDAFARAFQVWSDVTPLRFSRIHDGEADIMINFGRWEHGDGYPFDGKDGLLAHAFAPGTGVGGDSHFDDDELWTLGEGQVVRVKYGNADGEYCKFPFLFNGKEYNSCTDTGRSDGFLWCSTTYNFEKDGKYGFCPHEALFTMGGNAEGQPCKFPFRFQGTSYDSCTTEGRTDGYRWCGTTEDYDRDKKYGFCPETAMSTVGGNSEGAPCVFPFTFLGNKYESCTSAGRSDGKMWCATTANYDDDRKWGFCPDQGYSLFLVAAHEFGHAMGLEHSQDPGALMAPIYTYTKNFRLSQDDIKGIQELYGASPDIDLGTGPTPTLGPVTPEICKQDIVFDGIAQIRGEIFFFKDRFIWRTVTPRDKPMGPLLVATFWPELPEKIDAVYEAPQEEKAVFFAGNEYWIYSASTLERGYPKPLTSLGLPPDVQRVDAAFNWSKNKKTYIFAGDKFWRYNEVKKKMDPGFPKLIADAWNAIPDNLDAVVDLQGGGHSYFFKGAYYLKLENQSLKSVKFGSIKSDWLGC
# Test Details: Inhibitory effects on human MMP2 (Method 1), enzyme assay with MOCAc-Pro-Leu-Gly-Leu-A2pr(Dnp)-Ala-Arg-NH2 substrate, 96-well
# Assay type: biochemical
# Measurement Conditions: Test Example No. 1-1 (Method 1, 96-well microplate); read-out: Human MMP2, IC50
pIC50: −log10 of the molar value. *1 amine or outer side, *2 acyl side, *3 side chain or, on linkers, in order; H or OH if unused. Where a SMILES comes first, the peptide text is derived from it. [ ]: non-standard residue; d: D form. The star is where a group is joined. Benzoyl(4-O-C6H4-4-CONHMe) = CNC(=O)c1ccc(Oc2ccc(C(=O)*)cc2)cc1; Benzoyl(4-OPh) = O=C(c1ccc(Oc2ccccc2)cc1)*; NMeGABA = CN(CCCC(=O)[*:2])[*:1]; NMeI = CC[C@H](C)[C@H](NC)C(=O)O; NMeE = CN[C@@H](CCC(=O)O)C(=O)O; NMeN = CN[C@@H](CC(N)=O)C(=O)O; NMeK = CN[C@@H](CCCCN)C(=O)O; β3hP = O=C(O)C[C@@H]1CCCN1; Dab = NCC[C@H](N)C(=O)O; Ava = NCCCCC(=O)O; GABA = NCCCC(=O)O
Reported Endpoint: pIC50

Molecule: CC[C@H](C)[C@@H](C(=O)N1CCC[C@H]1C(N)=O)N(C)C(=O)[C@H](CC(C)C)NC(=O)[C@H](C)NC(=O)[C@H](CC(=O)O)NC(=O)[C@H](CC(N)=O)N(C)C(=O)CCCN(C)C(=O)c1ccc(Oc2ccccc2)cc1 [Compound 103] ({Benzoyl(4-OPh)}-[NMeGABA][NMeN]DAL[NMeI]P-NH2; N-terminus assumed)
Tested Target: MMP2 (Homo sapiens)
Reported Endpoint: pIC50
Endpoint Value: 9.17
--
Molecule: CNC(=O)c1ccc(Oc2ccc(C(=O)NCCCCC(=O)N[C@@H](CCCNC(=N)N)C(=O)N[C@@H](CC(=O)O)C(=O)N[C@@H](CCN)C(=O)N[C@@H](CC(C)C)C(=O)N(C)[C@@H](CCC(=O)O)C(=O)N3CCC[C@H]3CC(N)=O)cc2)cc1 [Compound 188] ({Benzoyl(4-O-C6H4-4-CONHMe)-Ava}-RD[Dab]L[NMeE][β3hP]-NH2; N-terminus assumed)
Tested Target: MMP2 (Homo sapiens)
Reported Endpoint: pIC50
Endpoint Value: 9.09
--
Molecule: CC[C@H](C)[C@@H](C(=O)N1CCC[C@H]1C(N)=O)N(C)C(=O)[C@H](CC(C)C)NC(=O)[C@H](C)NC(=O)[C@H](CC(=O)O)NC(=O)[C@H](CCCCN)N(C)C(=O)CCCNC(=O)c1ccc(Oc2ccccc2)cc1 [Compound 127] ({Benzoyl(4-OPh)-GABA}-[NMeK]DAL[NMeI]P-NH2; N-terminus assumed)
Tested Target: MMP2 (Homo sapiens)
Reported Endpoint: pIC50
Endpoint Value: 9.62

Reference for the values: patent US20240199692A1
